Hi there, I'd appreciate the recorded growth for every entry that follows.
Tested on: CAKI-1 renal
Assay: NCI-60 one-dose screen, 48 h (100 = growth as untreated, 0 = no growth, -100 = all killed)
Conditions: 10 µM unless noted
The panel holds about 83,000 compounds, 20% with a hit somewhere; the sample as a whole holds those more often.
One number for each entry, in %.

| Structure | Experimental system | growth [%] |
| --- | --- | --- |
| CC1=CC(C)(C)Nc2ccc(Cc3ccc4c(c3)C(C)=CC(C)(C)N4)cc21 | CAKI-1 renal | 73.6 |

State the recorded growth for every item in the following list.
1. Cn1c(=O)[nH]c(=O)c2nc(CCC(=O)NCCC(=O)O)c(=O)[nH]c21
2. C=CC(=O)Nc1cccc(-c2nc(SC)nc(NCCN3CCOCC3)c2C#N)c1
3. CCOc1ccc(-n2nc(C(=O)Nc3ccccc3)nc2-c2cc(OC)c(OC)c(OC)c2)cc1
4. O=C(N/N=C/c1c[nH]c2ccccc12)c1cc(-c2ccccc2)on1
5. CCCCn1c(-c2ccc(C(=O)O/N=C(\N)c3ccc4c(c3)OCO4)cc2)nc(-c2ccccc2)c1-c1ccccc1
6. O=C(COc1cccc(/C=C2\COc3ccccc3C2=O)c1)Nc1nccs1
7. COc1ccc(-n2nc(C)c3c(Nc4ccc(NC(=O)Nc5cccc(C(F)(F)F)c5)cc4)ncnc32)cc1

1: 93.5; 2: 86.2; 3: 51.6; 4: 69.7; 5: 11.5; 6: 83.5; 7: -18.9

Which measured growth value corresponds to `O=C1Nc2c(ccc(Cl)c2Cl)/C1=C\c1ccc(C(F)(F)F)cc1` ?
65.9

---

System: SF-268 CNS
Test: NCI-60 one-dose screen, 48 h
Settings: 10 µM unless noted
Compounds without any hit were thinned out: in the full panel of roughly 83,000, 20% have a hit. Activity calls are given as the source filed them. How the source made its calls: active means growth percent below 10; inactive means the rest.
Please state which outcome applies, choosing from active, inactive

Previously resolved entries follow.
| Molecule | Category |
| --- | --- |
| CSc1ccc(-c2n[nH]nc2-c2cc3ccccc3s2)cc1 | inactive |
| Cc1ccc(C2Oc3ccccc3C3CC(c4cccs4)=NN32)cc1 (stereo not given) | inactive |
| CCC#CC[C@H](O)C/C=C1/C(=O)C=C[C@@H]1C/C=C\CCCC(=O)OC | inactive |
| O=C(/C=C/c1cccc(Cl)c1)c1ccc(O)c(CN2CCN(c3cc4c(cc3F)c(=O)c(C(=O)O)cn4C3CC3)CC2)c1 | inactive |

What classification did `O=C1/C(=C/c2ccc3c(c2)OCO3)SC(=S)N1CCc1ccc(O)cc1` end up with in this test?
inactive

Now give it for `COc1cc2nc(N3CCCC3)nc(NCc3ccccc3)c2cc1OC` too.
inactive

Moving on to the next molecule: `CN1CCN(Cc2ccc(NC(=O)c3cncc(C#Cc4cncn5ccnc45)c3)cc2C(F)(F)F)CC1`
inactive

For `C=C(C)[C@@H]1CC[C@]2(C(=O)OC)CC[C@]3(C)[C@H](CC[C@@H]4[C@@]5(C)C/C(=C/c6ccc(OC)cc6)C(=O)C(C)(C)[C@@H]5CC[C@]43C)[C@@H]12` then?
inactive

Please do the same for `C=C1C(=O)O[C@H]2[C@H]1CC/C(COC(=O)c1cc3cc(OC)ccc3[nH]1)=C\CC[C@@]1(C)O[C@@H]21` as well.
active

And what about the molecule `COc1ccc(S(=O)(=O)N2CCCCCC2)cc1NC(=O)c1[nH]c(C)c2c1CCCCC2=O` ?
inactive

---

System: SNB-19 CNS
Experiment: NCI-60 one-dose screen, 48 h (100 = growth as untreated, 0 = no growth, -100 = all killed)
Conditions: 10 µM unless noted
Procedure: Growth inhibition of the SNB-19 human tumor cell line is measured as a screen for anti-cancer activity. Cells are grown in 96 well plates and exposed to the test compound for 48 hours. Compounds are tested at a single concentration, which is 10^-5 M for most compounds. The reported endpoint is percent growth (GI% or GIPRCNT), where numbers from 0 - 100% represent growth inhibition, and numbers from -100% - 0 represent cell death. For example, a value of 40 represents 60% growth inhibition. […]
About 83,000 compounds went through this panel and 20% of them were active in at least one assay; those are over-represented in the sample as a whole.
Returns Met if the recorded growth is greater than or equal to 40%, and Not met otherwise.

| Structure | Category |
| --- | --- |
| C=C1C(=O)O[C@H]2[C@H]1CC/C(COC(=O)NCCc1ccc(OC)c(OC)c1)=C\CC[C@@]1(C)O[C@@H]21 | Met |
| O=c1ccccc(-c2ccc(Br)cc2)c1O | Not met |
| O=C(Cc1ccc(/C=C/C(=O)c2ncc[nH]2)cc1)Nc1ccccc1 | Not met |
| Cc1cc(NS(=O)(=O)c2ccc(-c3cnc(C4CC4)o3)cc2)ccc1Cl | Met |

Say whether `COc1ccc(/C=C/C(=O)c2cc(O)ccc2O)cc1` shows growth of 40% or more.
Met

---

Tested on: SK-MEL-28 melanoma
Test: NCI-60 one-dose screen, 48 h (100 = growth as untreated, 0 = no growth, -100 = all killed)
Settings: 10 µM unless noted
Procedure: Growth inhibition of the SK-MEL-28 human tumor cell line is measured as a screen for anti-cancer activity. Cells are grown in 96 well plates and exposed to the test compound for 48 hours. Compounds are tested at a single concentration, which is 10^-5 M for most compounds. The reported endpoint is percent growth (GI% or GIPRCNT), where numbers from 0 - 100% represent growth inhibition, and numbers from -100% - 0 represent cell death. For example, a value of 40 represents 60% growth inhibition. […]
The panel holds about 83,000 compounds, 20% with a hit somewhere; the sample as a whole holds those more often. The source made the active and inactive calls. How the source made its calls: active means growth percent below 10; inactive means the rest.
Property measured: growth

| Molecule | Property measured | Endpoint result |
| --- | --- | --- |
| Clc1ccc2c(NCCNc3nc(N4CCCCC4)nc4ccccc34)ccnc2c1 | growth | -79.2% (active) |
| Cn1ncc2c(=O)nc3c(-c4ccccc4)n[nH]n3c21 | growth | 138% (inactive) |
| Cc1nn(-c2ccc(F)cc2)c2ncnc(Oc3ccc(NC(=O)Nc4ccc(Cl)c(C(F)(F)F)c4)cc3)c12 | growth | 102% (inactive) |
| NC(=O)c1cc(I)ccc1NC(=O)/C=C/c1ccccc1Cl | growth | 38% (inactive) |
| O=c1cc(CSc2nnc(-c3ccc(F)cc3)o2)c2ccc3ccccc3c2o1 | growth | 110% (inactive) |
| COc1cccc(-c2nc3sccn3c2-c2ccnc(NCCCNS(=O)(=O)c3cccc(Cl)c3)c2)c1 | growth | 67.4% (inactive) |
| O=C1NC(=S)NC(=O)C1CC(=O)n1c(-c2ccccc2)nc2ccccc21 | growth | 112% (inactive) |
| COc1ccc(NC2=C(Sc3nc(C)cc(C)n3)C(=O)N(Cc3ccccc3)C2=O)cc1Cl | growth | 103% [30 µM] (inactive) |

State recorded growth for all listed molecules.
1. CCCCN1CCCn2c1nc1c2c(=O)n(CCC)c(=O)n1CCC
2. Cc1ccc(C2Oc3ccccc3C3CC(c4cccs4)=NN32)cc1 (centres undefined)
3. COc1cccc(-c2nn(C(C)(C)C)cc2-c2ccnc(NCCCNS(=O)(=O)c3ccc(C)cc3)c2)c1
4. O=C1c2cccc3cccc(c23)C(=O)N1CCCCCN1CCN(CCCCCOc2ccc(-c3nc4ccc(N5CCOCC5)cc4[nH]3)cc2)CC1
5. C#CC(F)(F)[C@]1(O)CC[C@H]2[C@@H]3CCC4=CC(=O)CCC4=C3[C@@H](c3ccc(C(C)=O)cc3)C[C@@]21C

1. 103% (inactive)
2. 103% (inactive)
3. 112% (inactive)
4. 95.7% (inactive)
5. 107% (inactive)

Hi, could you look up growth for each item in my list?
1. CSc1nc2c(c(=O)[nH]1)C1(C(=O)Nc3ccccc31)c1c(nc(SC)[nH]c1=O)N2
2. COc1cccc(-c2nc3sccn3c2-c2ccnc(NCCCNS(=O)(=O)c3cccc(F)c3)c2)c1
3. Cn1c(=O)[nH]c(=O)c2nc(CCC(=O)NCCC(=O)O)c(=O)[nH]c21
4. N#Cc1c(-c2ccc(Cl)cc2)nc(N/N=C/c2cccc(Br)c2)nc1N1CCOCC1
5. O=C(/C=C/C=C/c1ccc2c(c1)OCO2)N/N=C\c1ccc(O)cc1O
6. Cn1cc(C(=O)c2nc(-c3c[nH]c4ccccc34)no2)c2ccccc21

1: 105% (inactive); 2: 42.6% (inactive); 3: 103% (inactive); 4: 99.5% (inactive); 5: 42.1% (inactive); 6: 94% (inactive)

---

I'd be grateful if you could share measured growth for these entries.
Tested on: MDA-MB-435 melanoma
Experiment: NCI-60 one-dose screen, 48 h (100 = growth as untreated, 0 = no growth, -100 = all killed)
Conditions: 10 µM unless noted
Compounds without any hit were thinned out: in the full panel of roughly 83,000, 20% have a hit.
One number for each entry, in %.

| Compound | growth, % |
| --- | --- |
| Cc1ccc(OC(=O)c2ccc(Cl)cc2)cc1 | 99.1 |
| N#CCCN=Nc1c(O)[nH]c2ccc(F)cc12 | 96.6 |
| CCOc1ccc(C(C)=O)cc1NC(=O)c1cccc(-c2nnn(CC)n2)c1 | -47.6 |

Would you mind giving growth for every compound in the list below?
1. Cc1cc(N2CCOCC2)nc(NCc2cc(Nc3ccnc4cc(Cl)ccc34)ccc2F)n1
2. NC(=O)c1cc(Br)ccc1NC(=O)/C=C/c1ccccc1

1: -79.5; 2: -7.27

Fill in growth for each of the 3 compounds listed.
1. COc1ccc(C(=O)COc2ccc(/C=C3\Oc4ccc(OC)cc4C3=O)cc2)cc1
2. N#Cc1c(-c2ccc(Cl)cc2)nc(NN=Cc2ccco2)nc1N1CCOCC1
3. Oc1ccccc1-c1nnc(CNc2ccc(Cl)cc2)o1

115
79.4
33.8

Would you mind listing growth for each of the following compounds?
1. Cc1ccc(-c2onc3c(=O)[nH]nc(-c4ccccc4)c23)cc1
2. COc1ccc(CN2c3ccccc3Sc3ccccc32)c(C(F)(F)F)c1
3. COc1ccc(-c2cc(Nc3ccnc(N4CCOCC4)n3)on2)cc1
4. Cn1ccnc1C(=O)/C=C/c1ccccc1
5. Cn1ncc2c(=O)nc3c(-c4ccccc4)n[nH]n3c21

[-34.6, -33.6, -30.2, 10.8, 101]

Hello, I would appreciate it if you could give growth for each entry below.
1. CCOC(=O)c1c(C)oc2ncnc(N3CCN(C(=S)Nc4ccccc4)CC3)c12
2. O=C1C=C(OCC=C(Cl)Cl)C(=O)c2ccccc21

[102, -55.7]

Hi there! I need growth for each item below, if you can.
1. Cc1ccc2c(C(C[N+](=O)[O-])c3ccco3)c(-c3ccccc3)[nH]c2c1 (configuration not stated)
2. COc1cc(-c2ccc3c(c2)NC(=O)/C3=C\c2ccc[nH]2)ccc1O
3. CN1CCN(c2ccc3nc(-c4ccc(OCCCCN5CCN(CCCCN6C(=O)c7cccc8cccc(c78)C6=O)CC5)cc4)[nH]c3c2)CC1
4. CC(=O)OCCC/C(=C/c1cc2ccccc2c2ccccc12)[N+](=O)[O-]
5. CCOC(=O)c1cc(C(=O)c2ccc(O)c(O)c2)n2ccc(-c3ccn4c(C(=O)c5ccc(O)c(O)c5)cc(C(=O)OCC)c4c3)cc12
6. Cc1cc2c3ccccc3ccc2[n+]2ccccc12
7. O=C1c2ccccc2OC=C(c2ccccc2)N1CCCCNc1ccc(S(=O)(=O)Nc2ncccn2)cc1

[-34, 12.2, 65.9, -36.2, 99.9, 76.5, 105]
